target or system: human TLR7 (Homo sapiens (Human), UniProt Q9NYK1)
Sequence (Q9NYK1 27-1049): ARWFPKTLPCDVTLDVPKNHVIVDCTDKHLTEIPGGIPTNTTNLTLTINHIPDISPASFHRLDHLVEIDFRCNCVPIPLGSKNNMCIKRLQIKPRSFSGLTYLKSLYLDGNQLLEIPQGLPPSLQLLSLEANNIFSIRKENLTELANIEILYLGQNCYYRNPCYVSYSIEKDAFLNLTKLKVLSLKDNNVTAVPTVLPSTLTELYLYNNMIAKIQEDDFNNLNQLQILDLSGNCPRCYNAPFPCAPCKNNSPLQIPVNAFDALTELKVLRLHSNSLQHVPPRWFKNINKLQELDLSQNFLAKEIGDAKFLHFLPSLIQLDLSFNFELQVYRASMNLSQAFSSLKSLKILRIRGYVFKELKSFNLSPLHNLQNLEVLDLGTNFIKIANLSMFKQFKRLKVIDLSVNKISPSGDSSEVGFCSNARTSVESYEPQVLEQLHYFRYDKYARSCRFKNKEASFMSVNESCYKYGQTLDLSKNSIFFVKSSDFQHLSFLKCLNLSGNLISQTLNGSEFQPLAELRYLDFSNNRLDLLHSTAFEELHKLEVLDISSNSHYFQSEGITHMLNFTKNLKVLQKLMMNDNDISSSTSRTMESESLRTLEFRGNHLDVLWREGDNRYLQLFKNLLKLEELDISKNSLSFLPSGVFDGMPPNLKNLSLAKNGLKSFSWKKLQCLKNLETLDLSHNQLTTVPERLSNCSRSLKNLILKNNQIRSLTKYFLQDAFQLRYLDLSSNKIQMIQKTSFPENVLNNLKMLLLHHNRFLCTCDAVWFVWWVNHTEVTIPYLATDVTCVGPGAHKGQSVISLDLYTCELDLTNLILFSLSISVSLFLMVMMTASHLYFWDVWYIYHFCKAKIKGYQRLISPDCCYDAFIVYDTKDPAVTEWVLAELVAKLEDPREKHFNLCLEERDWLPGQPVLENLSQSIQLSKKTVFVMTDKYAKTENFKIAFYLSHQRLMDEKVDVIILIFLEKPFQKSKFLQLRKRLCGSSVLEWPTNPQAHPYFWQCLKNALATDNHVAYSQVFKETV
test summary: Reporter Gene Assay (HEK293 stably transfected with human TLR7 and NF-kB-driven luciferase reporter)
Assay type: cell-based
condition context: HEK293 cells stably transfected with human TLR7 and pNifty-Luciferase; 7 hours incubation; EC50 relative to the activity of resiquimod set to 100%
Experimental: As a control assay, normal Hek293 transfected with pNifty-Luc were used. […] Bright-Glo™ Luciferase assay buffer and substrate were supplied by Promega #E263B and #E264B (assay substrate and buffer respectively). […] Cells were plated at 25,000 cells/well in 384-well plates in a final volume of 50 μl of media. […] The luminescence signal was read on a CLIPR machine with an integration time of 20 seconds per plate.
measure name: EC50

>>> df
                                item_smiles                          target_or_system   obs_value
0  CCCCCNc1nc(N)nc2ccn(Cc3ccc(CC(=O)OCCO)cc3OC)c12  human TLR7 (Homo sapiens (Human), UniProt Q9NYK1)  < 0.006 µM
1  CCCCCNc1nc(N)nc2ccn(Cc3ccc(CC(=O)OCCN4CCN(C)CC4)cc3OC)c12  human TLR7 (Homo sapiens (Human), UniProt Q9NYK1)  < 0.005 µM
2  CCCCCNc1nc(N)nc2ccn(Cc3cc(/C=C/C(=O)OCC(=O)N4CCOCC4)ccc3OC)c12  human TLR7 (Homo sapiens (Human), UniProt Q9NYK1)  < 0.005 µM
3  CCCCCNc1nc(N)nc2ccn(Cc3ccc(CN4CCNCC4)cc3OC)c12  human TLR7 (Homo sapiens (Human), UniProt Q9NYK1)  < 0.005 µM
